# testedOn: UniProtKB P32245
# Sequence (P32245 whole entry): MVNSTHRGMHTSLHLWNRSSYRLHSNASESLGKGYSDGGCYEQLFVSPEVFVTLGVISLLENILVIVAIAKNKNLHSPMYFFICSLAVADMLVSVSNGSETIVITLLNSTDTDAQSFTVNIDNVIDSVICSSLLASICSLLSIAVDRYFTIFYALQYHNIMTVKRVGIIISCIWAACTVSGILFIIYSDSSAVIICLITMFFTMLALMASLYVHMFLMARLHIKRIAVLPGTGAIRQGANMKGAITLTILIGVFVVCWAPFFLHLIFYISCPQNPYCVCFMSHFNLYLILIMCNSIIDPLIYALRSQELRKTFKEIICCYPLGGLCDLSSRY
# experimentalDetails: Agonist activity at human MC4R expressed in HEK293 cells assessed as intracellular cAMP accumulation
# Type: functional, cell-based
Positions of bridges follow the written chain, without caps; N, C: chain ends. Non-standard residues stand in square brackets, D forms with d. Residues, ends and D or L forms follow the SMILES beside them. 2Nal = N[C@@H](Cc1ccc2ccccc2c1)C(=O)O
observable: EC50

1) CC(=O)N[C@H]1CC(=O)NCCCC[C@@H](C(N)=O)NC(=O)[C@@H](CCC(N)=O)NC(=O)[C@H](Cc2ccccc2)NC(=O)[C@H](Cc2c[nH]c3ccccc23)NC(=O)[C@H](CCCNC(=N)N)NC1=O (Ac-DRWF[dQ]K-NH2; lactam 1-6); Not Active
2) CC(=O)N[C@H]1CC(=O)NCCCC[C@@H](C(N)=O)NC(=O)[C@@H](CCC(N)=O)NC(=O)[C@H](Cc2ccc3ccccc3c2)NC(=O)[C@H](Cc2c[nH]c3ccccc23)NC(=O)[C@H](CCCNC(=N)N)NC1=O (Ac-DRW[2Nal][dQ]K-NH2; lactam 1-6); Not Active

###

# testedOn: Melanocyte-stimulating hormone receptor (Homo sapiens, UniProt Q01726)
# Sequence (Q01726 whole entry, looked up): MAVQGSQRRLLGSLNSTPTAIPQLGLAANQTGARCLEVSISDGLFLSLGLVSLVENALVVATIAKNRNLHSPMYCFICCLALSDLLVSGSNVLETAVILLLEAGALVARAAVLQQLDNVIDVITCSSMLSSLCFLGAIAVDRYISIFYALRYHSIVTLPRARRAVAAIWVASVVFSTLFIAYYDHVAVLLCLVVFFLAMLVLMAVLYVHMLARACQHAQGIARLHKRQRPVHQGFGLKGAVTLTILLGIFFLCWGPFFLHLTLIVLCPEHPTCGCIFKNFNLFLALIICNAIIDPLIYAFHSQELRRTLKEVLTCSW
# experimentalDetails: Agonist activity at human MC1R expressed in HEK293 cells assessed as increase in intracellular cAMP level at 10 uM after 3 mins by luminescence counter relative to Ac-Nle-c[Asp-His-D-Phe-Arg-Trp-Lys]-NH2
# Type: functional, cell-based
Positions of bridges follow the written chain, without caps; N, C: chain ends. Non-standard residues stand in square brackets, D forms with d. Residues, ends and D or L forms follow the SMILES beside them. 2Nal = N[C@@H](Cc1ccc2ccccc2c1)C(=O)O
observable: Activity

1) CC(=O)N[C@H]1CC(=O)NCCCC[C@@H](C(N)=O)NC(=O)[C@@H](CC(N)=O)NC(=O)[C@H](Cc2ccc3ccccc3c2)NC(=O)[C@H](Cc2c[nH]c3ccccc23)NC(=O)[C@H](CCCNC(=N)N)NC1=O (Ac-DRW[2Nal][dN]K-NH2; lactam 1-6); 0%
2) CC(=O)N[C@H]1CC(=O)NCCCC[C@@H](C(N)=O)NC(=O)[C@@H](CC(N)=O)NC(=O)[C@H](Cc2ccccc2)NC(=O)[C@H](Cc2c[nH]c3ccccc23)NC(=O)[C@H](CCCNC(=N)N)NC1=O (Ac-DRWF[dN]K-NH2; lactam 1-6); 0%
3) CC(=O)N[C@H]1CC(=O)NCCCC[C@@H](C(N)=O)NC(=O)[C@@H](CCC(N)=O)NC(=O)[C@H](Cc2ccccc2)NC(=O)[C@H](Cc2c[nH]c3ccccc23)NC(=O)[C@H](CCCNC(=N)N)NC1=O (Ac-DRWF[dQ]K-NH2; lactam 1-6); 0%
4) CC(=O)N[C@H]1CC(=O)NCCCC[C@@H](C(N)=O)NC(=O)[C@@H](CCC(N)=O)NC(=O)[C@H](Cc2ccc3ccccc3c2)NC(=O)[C@H](Cc2c[nH]c3ccccc23)NC(=O)[C@H](CCCNC(=N)N)NC1=O (Ac-DRW[2Nal][dQ]K-NH2; lactam 1-6); 0%
